Each recorded value in this set is attributed to patent US12606543B2.

Task for the reader: assign each of the following compounds its reported concentration at 1 h.
experiment: Pharmacokinetic studies in rat (i.v.); assay type: in vivo; conditions: male, Sprague-Dawley, plasma, intravenous, dose per Dose column (1.32-2.09 mg/kg), 1 h, third animal (R09/R06/R03/R12), read-out: Plasma concentration
Numeric answer plus unit only.

Previously resolved entries follow.
[2H]C([2H])(c1c[nH]c2ccc(OCCCCCN3C(=O)c4ccccc4C3=O)cc12)[C@H]1CCCN1C([2H])([2H])[2H] [(R) I-245] : 98.3 ng/mL
[2H]C([2H])(c1c[nH]c2ccc(OCCCCN3C(=O)c4ccccc4C3=O)cc12)[C@H]1CCCN1C([2H])([2H])[2H] [(R) I-244] : 107 ng/mL
COCCN1CCC[C@@H]1Cc1c[nH]c2ccc(OC)cc12 [(R) I-98] : 100 ng/mL

Per the record, [2H]C([2H])(c1c[nH]c2ccc(OCCCCCN3C(=O)C4CCCCC4C3=O)cc12)[C@H]1CCCN1C([2H])([2H])[2H] (mixture of isomers) [Rac (R) I-248] has concentration at 1 h of 162 ng/mL

----------
assay: Liver microsomes stability, human; assay type: in vitro ADME; conditions: human liver microsomes, With Cofactors, 60 min
Binary call on Remaining Percentage with cut-off 2%: strictly below means t, and equality or higher means f.

Some solved entries appear below for comparison.
COc1ccc2[nH]cc(CCN(C)C)c2c1 : f
[2H]C([2H])(c1c[nH]c2ccc(OCCCCN3C(=O)c4ccccc4C3=O)cc12)[C@H]1CCCN1C([2H])([2H])[2H] [(R) I-244] : t
COCCN1CCC[C@@H]1Cc1c[nH]c2ccc(OC)cc12 [(R) I-98] : f
O=C(O)Cc1ccccc1Nc1c(Cl)cccc1Cl : t
[2H]C([2H])(c1c[nH]c2ccc(OCCCCCN3C(=O)C4CCCCC4C3=O)cc12)[C@H]1CCCN1C([2H])([2H])[2H] (mixture of isomers) [Rac (R) I-248] : t

Problem: Please determine if [2H]C([2H])(c1c[nH]c2ccc(OCCCCCN3C(=O)c4ccccc4C3=O)cc12)[C@H]1CCCN1C([2H])([2H])[2H] [(R) I-245] is below 2% in terms of Remaining Percentage.
Solution: f

----------
assay: Plasma protein binding by equilibrium dialysis, dog; format: in vitro ADME; conditions: Beagle, dog, dog plasma, equilibrium dialysis, 37° C., 6 hours
Task for the reader: assign each of the following molecules its reported recovery at 6 h, 1 µM.
Numbers only, in %.

Previously resolved entries follow.
[2H]C([2H])(c1c[nH]c2ccc(OCCCCN3C(=O)c4ccccc4C3=O)cc12)[C@H]1CCCN1C([2H])([2H])[2H] [(R) I-244] : 94.6
CC(=O)N1CCN(c2ccc(OCC3COC(Cn4ccnc4)(c4ccc(Cl)cc4Cl)O3)cc2)CC1 (stereo not drawn) [Ketoconazole, reference compound] : 86.1

Per the record, COCCN1CCC[C@@H]1Cc1c[nH]c2ccc(OC)cc12 [(R) I-98] has recovery at 6 h, 1 µM of 104

----------
assay: Plasma protein binding by equilibrium dialysis, rat; details: SD, rat, plasma
property: fraction unbound at 6 h, 1 μM
Numbers only.

[2H]C([2H])(c1c[nH]c2ccc(OCCCCN3C(=O)c4ccccc4C3=O)cc12)[C@H]1CCCN1C([2H])([2H])[2H] [(R) I-244] : 0.19

With those in mind, consider the next compound.
Per the record, COCCN1CCC[C@@H]1Cc1c[nH]c2ccc(OC)cc12 [(R) I-98] has fraction unbound at 6 h, 1 μM of 0.569
